- Test system: UACC-62 melanoma
- protocol: NCI-60 one-dose screen, 48 h
- condition_description: 10 µM unless noted
- Procedure: Growth inhibition of the UACC-62 human tumor cell line is measured as a screen for anti-cancer activity. Cells are grown in 96 well plates and exposed to the test compound for 48 hours. Compounds are tested at a single concentration, which is 10^-5 M for most compounds. The reported endpoint is percent growth (GI% or GIPRCNT), where numbers from 0 - 100% represent growth inhibition, and numbers from -100% - 0 represent cell death. For example, a value of 40 represents 60% growth inhibition. […]
This is part of a sample that, as a whole, favours compounds with a hit. Of some 83,000 tested, about 20% had one in any assay. Active and inactive are the calls of the source. Rule for the calls: active = growth percent below 10; inactive = the rest.
# valid calls are active, inactive; nothing else

Below are worked cases with known answers.
COc1c(CNC(=O)CCl)cc2[nH]c(C)cc2c1CNC(=O)CCl; inactive
Cn1c(=O)c2nc3c(=O)n(C)c(=O)n(C)c3nc2n(C)c1=O; inactive
CCOC(=O)c1ccc(C(C)(C)C)cc1; inactive
CCCCOC(=O)c1ccc(NC(=O)CCl)cc1; inactive
CC(=O)NC(CCc1ccc(Cl)c(Cl)c1)c1cccc(O)c(=O)c1 (stereo not drawn); active

Call for entry C=CCC(O)C=C (stereo not drawn) :
inactive

Call for entry N#Cc1ccc(OC(=O)Nc2cc(Cl)cc(Cl)c2)cc1 :
active

Call for entry ON1CCCC1 :
inactive

====

- System: SK-MEL-5 melanoma
- protocol: NCI-60 one-dose screen, 48 h (100 = growth as untreated, 0 = no growth, -100 = all killed)
- condition_description: 10 µM unless noted
The panel holds about 83,000 compounds, 20% with a hit somewhere; the sample as a whole holds those more often. Calls of active or inactive are those of the source. The calls were made as follows: active = growth percent below 10; inactive = the rest.
measurement_label: growth

CCOC(=O)CO; 107% (inactive)

Provide SK-MEL-5 melanoma growth reading for CC(=O)c1ccc(C)cc1 .
105% (inactive)

Provide SK-MEL-5 melanoma growth reading for CCCCCCCCCCCCCCCCOc1ccccc1NC(=O)CC(C)=O .
96.2% (inactive)

Provide SK-MEL-5 melanoma growth reading for Nc1nnc2cc(F)ccc2n1 .
114% (inactive)

Provide SK-MEL-5 melanoma growth reading for O=S1(=O)c2ccccc2Oc2ccccc21 .
108% (inactive)

Provide SK-MEL-5 melanoma growth reading for Cc1cccc2ccccc12 .
100% (inactive)

====

growth values by entry
- Test system: SNB-75 CNS
- protocol: NCI-60 one-dose screen, 48 h (100 = growth as untreated, 0 = no growth, -100 = all killed)
- condition_description: 10 µM unless noted
This is part of a sample that, as a whole, favours compounds with a hit. Of some 83,000 tested, about 20% had one in any assay.
Express it in %; write the number only.

Some solved entries appear below for comparison.
C1Cc2onc(-c3noc4c3CCC4)c2C1; 116
CCCCN(C(=O)CC)c1ccccc1; 89.8
O=S(Cc1ccccc1)/C(=C/NC(=S)Nc1cc(Cl)ccc1Cl)c1ccccc1 (stereo unspecified); 89.9
C=C(C)[C@@H]1CC[C@]2(CO)CC[C@]3(C)[C@H](CC[C@@H]4[C@@]5(C)CC[C@H](O)C(C)(C)[C@@H]5CC[C@]43C)[C@@H]12; 3.72

Dear colleague, please send me the reported growth for COc1ccc2c(ccc[n+]2C)c1 when you can.
78.3

Dear colleague, please send me the reported growth for OCC(O)COc1ccc(Cl)cc1Cl (stereo unspecified) when you can.
85.8

Dear colleague, please send me the reported growth for CCOc1ccc(NC(=S)N2CCC(CCCC3CCN(C(=S)Nc4ccc(OCC)cc4)CC3)CC2)cc1 when you can.
80.3

Dear colleague, please send me the reported growth for CC1(c2ccccc2)CO1 (stereo unspecified) when you can.
89.9

Dear colleague, please send me the reported growth for COC(=O)c1cccc([N+](=O)[O-])c1 when you can.
120

Dear colleague, please send me the reported growth for Cc1ccc(C)c2c1CCC2=O when you can.
86.1

Dear colleague, please send me the reported growth for Nc1ccc(F)cc1F when you can.
97.1

Dear colleague, please send me the reported growth for O=[N+]([O-])c1ccc(-c2nc(N(CCO)CCO)c3ccccc3n2)o1 when you can.
-91.7

Dear colleague, please send me the reported growth for CC(=O)N(C)N=Nc1ccc(C)cc1 when you can.
93.2

Dear colleague, please send me the reported growth for CCCC(OC(C)=O)c1ccc2c(c1)OCO2 (stereo unspecified) when you can.
96.9

Dear colleague, please send me the reported growth for C[n+]1cc2cc3c(cc2c2ccccc21)OCO3 when you can.
22.5

Dear colleague, please send me the reported growth for N#C/C(=C\c1ccc(C#N)cc1)C(=O)c1ccccc1 when you can.
77.8

Dear colleague, please send me the reported growth for CC(=O)CSc1ncnc2nc[nH]c12 when you can.
89.3
